Could you please report measured Kb for the items listed next?
# tested-on: Histamine H3 receptor (Cavia porcellus, UniProt Q9JI35)
# Sequence (Q9JI35 whole entry): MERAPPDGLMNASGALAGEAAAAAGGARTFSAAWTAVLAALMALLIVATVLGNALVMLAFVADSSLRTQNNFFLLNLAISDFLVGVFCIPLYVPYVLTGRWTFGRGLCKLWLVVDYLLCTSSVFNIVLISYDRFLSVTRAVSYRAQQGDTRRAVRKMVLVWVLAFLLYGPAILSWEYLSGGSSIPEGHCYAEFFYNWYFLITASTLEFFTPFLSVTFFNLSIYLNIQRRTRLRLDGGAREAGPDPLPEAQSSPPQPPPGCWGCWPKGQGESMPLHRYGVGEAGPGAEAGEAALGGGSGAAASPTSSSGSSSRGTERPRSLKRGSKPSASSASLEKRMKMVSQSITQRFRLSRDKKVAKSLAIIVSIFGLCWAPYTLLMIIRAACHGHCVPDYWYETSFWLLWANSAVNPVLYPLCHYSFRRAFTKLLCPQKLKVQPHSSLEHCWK
# experimental-details: Histamine H3 functional assay, guinea pig ileum (ileal longitudinal muscle, myenteric plexus)
# Set-up: species or system tissue
# measurement-setup: antagonist affinity from rightward shift of R-(α)-methylhistamine E/[A] curves (Schild); typical variance ±0.15 log units; read-out: pKb (Guinea pig ileum) (converted)
Counter-ions that a name gives are not always drawn.
Respond numerically; units are nM and should not be typed.

Exam item: What measured Kb goes with O=S(=O)(CCCCN1CCCC1)c1ccc2ccccc2c1 ?
Marked response: 1260

Exam item: What measured Kb goes with CN1CCC[C@H]1CCCNS(=O)(=O)Cc1ccccc1 ?
Marked response: 501

Exam item: What measured Kb goes with N=C(NCCCN1CCCC1)NCc1ccc(I)cc1 [Example 6, bis-hydrochloride] ?
Marked response: 398

Exam item: What measured Kb goes with CN1CCC[C@H]1CCCNS(=O)(=O)Cc1ccc(Br)cc1 ?
Marked response: 1000

Exam item: What measured Kb goes with O=S(=O)(NCCN1CCCCC1)c1ccc2ccccc2c1 ?
Marked response: 794

Exam item: What measured Kb goes with CN1CCC[C@H]1CCCNS(=O)(=O)CCC1CCCCC1 ?
Marked response: 2000

Exam item: What measured Kb goes with N=C(N)N(CCCCCCN1CCCC1)CCC12CC3CC(CC(C3)C1)C2 [Example 78, bis-hydrochloride] ?
Marked response: 31.6

Exam item: What measured Kb goes with N=C(NCCCN1CCCC1)NCCC1CCCCC1 [Example 42, bis-hydrochloride] ?
Marked response: 398

----------
# tested-on: UniProt:Q9JI35
# experimental-details: Histamine H3 radioligand binding assay, guinea pig cortex ([3H]-R-α-methylhistamine)
# measurement-setup: guinea pig cortex membranes, competition with 1 nM [3H]-R-α-methylhistamine; read-out: pKi (Guinea pig cortex) (converted)
Structures can show the parent of a compound that is named as a salt.
Could you please report measured log10 of Ki for the items listed next?
Annotation: log10 of Ki, µM basis.

Exam item: Checklist item: log10 of Ki tested on UniProt:Q9JI35, entry N=C(NCCCc1ccc(Cl)cc1)NCCCN1CCCC1 [Example 21, bis-hydrochloride] , value?
Marked response: -1.30

Exam item: Checklist item: log10 of Ki tested on UniProt:Q9JI35, entry N=C(NCCCCc1ccccc1)NCCCN1CCCC1 [Example 22, bis-hydrochloride] , value?
Marked response: -1.10

Exam item: Checklist item: log10 of Ki tested on UniProt:Q9JI35, entry N=C(NCCCN1CCCC1)NCc1ccc(I)cc1 [Example 6, bis-hydrochloride] , value?
Marked response: -1.30

Exam item: Checklist item: log10 of Ki tested on UniProt:Q9JI35, entry N=C(NCCCCCN1CCCC1)NCc1ccc2ccccc2c1 [Example 53, bis-hydrochloride] , value?
Marked response: -2.10

Exam item: Checklist item: log10 of Ki tested on UniProt:Q9JI35, entry CN1CCCCC1CCNS(=O)(=O)c1ccc2ccccc2c1 (stereo not shown) [Example 90] , value?
Marked response: 0.10

Exam item: Checklist item: log10 of Ki tested on UniProt:Q9JI35, entry CN1CCCC1CCCCS(=O)(=O)NCc1ccc(Cl)cc1 (stereo not shown) [Example 136] , value?
Marked response: -0.50

Exam item: Checklist item: log10 of Ki tested on UniProt:Q9JI35, entry CC(C)CCNC(=N)NCCCCCN1CCCC1 [Example 66, bis-hydrochloride] , value?
Marked response: -2.60

Exam item: Checklist item: log10 of Ki tested on UniProt:Q9JI35, entry CN1CCC[C@H]1CCCNS(=O)(=O)CCC1CCCCC1 [Example 142] , value?
Marked response: -0.20

Exam item: Checklist item: log10 of Ki tested on UniProt:Q9JI35, entry N=C(NCCCN1CCCC1)NCCC12CC3CC(CC(C3)C1)C2 [Example 33, bis-hydrochloride] , value?
Marked response: -1.10

Exam item: Checklist item: log10 of Ki tested on UniProt:Q9JI35, entry CN1CCC[C@H]1CCCN(CCCN)S(=O)(=O)NCc1ccc(Cl)cc1 [Example 126] , value?
Marked response: 0.00

Exam item: Checklist item: log10 of Ki tested on UniProt:Q9JI35, entry N=C(NCCN1CCCC1)NCc1ccc(Cl)cc1 [Example 16, bis-hydrochloride] , value?
Marked response: -0.20

Exam item: Checklist item: log10 of Ki tested on UniProt:Q9JI35, entry CN1CCC[C@H]1CCCN(CC(=O)NCc1ccc(Cl)cc1)S(=O)(=O)NCc1ccc(Cl)cc1 [Example 129] , value?
Marked response: -0.10

Exam item: Checklist item: log10 of Ki tested on UniProt:Q9JI35, entry O=S(=O)(NCCC[C@@H]1CCCN1CCCc1ccc(Cl)cc1)NCc1ccc(Cl)cc1 [Example 118] , value?
Marked response: 0.20

Exam item: Checklist item: log10 of Ki tested on UniProt:Q9JI35, entry C[C@H](NC(=N)NCCCCN1CCCC1)C1CCCCC1 [Example 45, bis-hydrochloride] , value?
Marked response: -2.40

Exam item: Checklist item: log10 of Ki tested on UniProt:Q9JI35, entry CN1CCCC1CCNC(=N)NCc1ccc(Cl)cc1 (stereo not shown) [Example 27, bis-hydrochloride] , value?
Marked response: -0.80

Exam item: Checklist item: log10 of Ki tested on UniProt:Q9JI35, entry CN1CCCC1CCCCS(=O)(=O)NCC12CC3CC(CC(C3)C1)C2 (stereo not shown) [Example 138] , value?
Marked response: 0.10

Exam item: Checklist item: log10 of Ki tested on UniProt:Q9JI35, entry O=S(=O)(NCCCCCN1CCCC1)NCc1ccc(Cl)cc1 [Example 141] , value?
Marked response: -0.60

Exam item: Checklist item: log10 of Ki tested on UniProt:Q9JI35, entry COC(=O)c1ccc(CNC(N)=NCCCN2CCCC2)cc1 [Example 14, bis-hydrochloride] , value?
Marked response: -1.60

Exam item: Checklist item: log10 of Ki tested on UniProt:Q9JI35, entry CN(C)C(=O)CN(CCC[C@@H]1CCCN1C)S(=O)(=O)NCc1ccc(Cl)cc1 [Example 128] , value?
Marked response: 0.50

Exam item: Checklist item: log10 of Ki tested on UniProt:Q9JI35, entry O=S(=O)(NCCCCN1CCCC1)c1ccc2ccccc2c1 [Example 83] , value?
Marked response: -0.60

Exam item: Checklist item: log10 of Ki tested on UniProt:Q9JI35, entry COc1ccc(CNC(=N)NCCCN2CCCC2)cc1Br [Example 7, bis-hydrochloride] , value?
Marked response: -1.40

Exam item: Checklist item: log10 of Ki tested on UniProt:Q9JI35, entry N=C(NCCCN1CCCC1)NCc1ccccc1Br [Example 11, bis-hydrochloride] , value?
Marked response: -1.40
